Tested on: RXF 393 renal
Experiment: NCI-60 one-dose screen, 48 h (100 = growth as untreated, 0 = no growth, -100 = all killed)
Conditions: 10 µM unless noted
About 83,000 compounds went through this panel and 20% of them were active in at least one assay; those are over-represented in the sample as a whole.
Give satisfied when the value for growth is at least 40%. Give not satisfied when it is less.

| Compound | Group |
| --- | --- |
| OCCNc1nc(NCCO)nc(Nc2ccc(C3=NN(c4ccc(Cl)cc4)C(c4ccc(Cl)cc4)C3)cc2)n1 (stereo not drawn) | not satisfied |
| CCOC(=O)/C=C1\SC(=Nc2ccc(C#N)cc2)N(CCN2C(=O)/C(=C/C(=O)OCC)SC2=Nc2ccc(C#N)cc2)C1=O | satisfied |
| COc1ccc2nc(-c3ccc(Cl)cc3)cc(C(=O)N3N=C(c4ccc(N)cc4)CC3c3ccccc3)c2c1 (stereo not drawn) | not satisfied |
| Cc1cnc(-c2ccc(-c3ccc(NC(=O)Nc4c(F)cc(F)cc4F)cc3F)c3c2C(=O)NC3)[nH]1 | not satisfied |
| NS(=O)(=O)c1ccc(-n2nc(-c3ccccc3)ccc2=O)cc1 | satisfied |
| CCCCC(=O)Nc1c(C(=O)Nc2ccccc2)sc2nc3c(cc12)C(OC(=O)CCCC)CCC3 (stereo not drawn) | satisfied |
| CC(C)(C)c1ccc(O)c(Cc2cc(C(C)(C)C)ccc2O)c1 | satisfied |
| CCN(CC)CC#CCOC(=O)[C@]1(C)CCC[C@]2(C)[C@H]3C[C@H]4C(C(C)C)=C[C@]3(CC[C@H]21)[C@@H]1C(=O)CCC(=O)[C@@H]14 | not satisfied |

----------
growth: recorded values
Test system: SNB-19 CNS
Test: NCI-60 one-dose screen, 48 h (100 = growth as untreated, 0 = no growth, -100 = all killed)
Settings: 10 µM unless noted
This is part of a sample that, as a whole, favours compounds with a hit. Of some 83,000 tested, about 20% had one in any assay.

| Smi | growth (%) |
| --- | --- |
| CCO/C=N/S(=O)(=O)c1cc2c(cc1Cl)NC=NS2(=O)=O | 103 |
| COc1ccc([C@H]2[C@@H](F)C(=O)N2c2cc(OC)c(OC)c(OC)c2)cc1F | 34.1 |
| CCOC(=O)c1cnn(-c2nc(-c3ccc(F)cc3)c(C#N)c(N3CCOCC3)n2)c1N | 95.1 |
| COc1ccc(Sc2[nH]c(C(C)=O)c3ccccc23)cc1 | 67.1 |
| O=C(O)c1ccc(-n2cc(/C=N/Nc3ccc(Cl)cc3Cl)c(-c3ccccc3)n2)cc1 | 101 |

----------
Tested on: UO-31 renal
Assay: NCI-60 one-dose screen, 48 h (100 = growth as untreated, 0 = no growth, -100 = all killed)
Settings: 10 µM unless noted
Compounds without any hit were thinned out: in the full panel of roughly 83,000, 20% have a hit.

| Compound | Unit of measurement | growth |
| --- | --- | --- |
| c1ccc(-c2n(Cc3ccc4ccccc4n3)cc[n+]2Cc2ccc3ccccc3c2)cc1 | % | 54.6 |
| COc1cc(C2=NNC(c3ccc(N(C)C)cc3)C2)cc(OC)c1OC (stereo not given) | % | 38.9 |
| C=C1C(=O)O[C@H]2[C@H]1CC/C(COC(=O)NCc1nc3ccccc3[nH]1)=C\CC[C@@]1(C)O[C@@H]21 | % | 75.5 |
| COC(=O)/C=C1\SC(=Nc2ccc(C(F)(F)F)cc2)N(CCc2c[nH]c3ccccc23)C1=O | % | -100 |
| COc1ccc(-c2cc(-c3nnc(SCC(=O)Nc4ccc(/C(C)=N\O)cc4)n3-c3ccccc3)c3cc(OC)ccc3n2)cc1 | % | 54.7 |

----------
Test system: IGROV1 ovarian
Assay: NCI-60 one-dose screen, 48 h (100 = growth as untreated, 0 = no growth, -100 = all killed)
Details: 10 µM unless noted
About 83,000 compounds went through this panel and 20% of them were active in at least one assay; those are over-represented in the sample as a whole.
Short version: growth at least 40% is TRUE, less is FALSE.

| Molecule | Group |
| --- | --- |
| O=C1NN(c2ccccc2)C(c2ccc3c(c2)OCO3)N2CCC[C@@H]12 (stereo not given in full) | TRUE |
| Cc1ccn2c3c(c(C(=O)O)c2c1)C(=O)c1ccccc1C3=O | TRUE |
| CCCCCOC(=O)c1ccccc1O | TRUE |
| O=C(O)COc1ccc2c(=O)c3sc4c(=O)c5ccccc5c(=O)c4c3c(=O)c2c1 | FALSE |
| C=C1C(=O)O[C@H]2[C@H]1CC/C(COC(=O)c1cc3ccccc3o1)=C\CC[C@@]1(C)O[C@@H]21 | FALSE |

----------
Tested on: SF-268 CNS
Assay: NCI-60 one-dose screen, 48 h (100 = growth as untreated, 0 = no growth, -100 = all killed)
Settings: 10 µM unless noted
This is part of a sample that, as a whole, favours compounds with a hit. Of some 83,000 tested, about 20% had one in any assay.
Returns one of Satisfied or Not satisfied; Satisfied when growth is >= 70%.

| Compound | Group |
| --- | --- |
| N#Cc1ccc(N2Cc3cc(Cl)ccc3OC3=C2C(=O)N(Cc2ccccc2)C3=O)cc1 | Not satisfied |
| c1ccc(Sc2ncccn2)nc1 | Satisfied |
| C#Cc1ccccc1NC(=O)c1sc2nc3c(cc2c1N)CCCCC3 | Satisfied |
| CCSc1ccc(C2C(Br)C(=O)N2c2cc(OC)c(OC)c(OC)c2)cc1 (stereo not given) | Not satisfied |
| O=C(Nc1cc(=O)[nH]c(=O)[nH]1)C(Cl)Cl | Satisfied |
| COc1cc(C2=N/C(=C\c3cc4ccccc4nc3Oc3ccccc3)C(=O)N2C(=N)N)cc(OC)c1OC | Not satisfied |
| CN(C)[C@@H]1C(=O)C(C(N)=O)=C(O)[C@@]2(O)C(=O)C3=C(O)c4c(O)cc(CN5CCc6ccccc6C5)c(Cl)c4C[C@H]3C[C@@H]12 | Not satisfied |
| N#CC(C#N)=C1NC(c2ccccc2)=C(c2ccccc2)C(c2ccccc2Cl)=C1C#N | Satisfied |

----------
Below is a list of entries, each paired with its recorded growth value.
Tested on: HCC-2998 colon
Assay: NCI-60 one-dose screen, 48 h (100 = growth as untreated, 0 = no growth, -100 = all killed)
Conditions: 10 µM unless noted
About 83,000 compounds went through this panel and 20% of them were active in at least one assay; those are over-represented in the sample as a whole.

| Compound | growth / % |
| --- | --- |
| O=C(Nc1ccc(S(=O)(=O)NC2CCCCCC2)cc1)C(c1ccccc1)S(=O)(=O)c1ccc(F)cc1 (stereo not given) | 15.4 |
| Nn1c(SCC(=O)Nc2ccc(Cl)cc2)nnc1-c1cc(F)c(Cl)cc1Cl | 93.2 |
| C#C[C@@]1(O)[C@@H](CO)O[C@@H](n2cc(-c3ccco3)c3c(N)ncnc32)[C@@H]1O | 56.4 |
| Nc1c(C(=O)Nc2ccccc2Cl)sc2nc3c(cc12)CN(Cc1ccccc1)CC3 | 96.5 |
| C=C1C(=O)O[C@H]2[C@H]1CC/C(COC(=O)N1CCC[C@H]1C(=O)Nc1ccc(OC)c(C(N)=O)c1O)=C\CC[C@@]1(C)O[C@@H]21 | 94.8 |
| N#CC1(C#N)C2=C(CCCC2)NC(c2c(F)cccc2Cl)C1(C#N)C#N (stereo not given) | 97.6 |
| O=C1CC23OC4ON=C(Br)C4C2C(O)c2ccccc2N13 (stereo not given) | 103 |
| Cc1cnc(SCc2ccc(Cl)cc2Cl)nc1Nc1ccc(Cl)c(Cl)c1 | 103 |
| O=C1CCc2ccccc2N1 | 84.8 |
| CCc1n(Cc2ccc3ccccc3c2)c2ccccc2[n+]1Cc1ccc2ccccc2c1 | 58 |
| O=C(Nc1cccc(-c2cccc(F)c2)c1)C1CCN(Cc2cccc3cccnc23)CC1 | -70.4 |
| c1ccc(-c2cn3ccnc3c(-c3ccc4c(c3)ncn4C3CCCCC3)n2)cc1 | 105 |
| CCOC(=O)c1sc(/N=C2\NC(=O)/C(=C/c3ccc(N4CCN(C)CC4)cc3)S2)nc1C | 94.7 |
| CCCCCCN1C(=O)CN=C1Nc1ccc2cc3ccc(NC4=NCC(=O)N4CCCCCC)cc3nc2c1 | 47.2 |
| Sc1cccc2cccnc12 | 40 |
| O=C(CCCC(=O)Nc1ccc(-n2nnc3cc(Cl)c(Cl)cc32)cc1)Nc1ccc(-n2nnc3cc(Cl)c(Cl)cc32)cc1 | 93.7 |
| N#Cc1ccc(C2C3=C(CCCC3=O)OC3=C2C(=O)c2ccccc2C3=O)cc1 (stereo not given) | 104 |
| COc1ccc(Cc2nc(C#N)c(N3CCN(c4ccc(F)cc4)CC3)o2)cc1 | 93.8 |
| O=c1[nH]nc(-c2ccccc2)c2sc(NC(=S)Nc3ccc(Cl)cc3)nc12 | 107 |
| COc1ccc(C(C)c2cc(OC)c(OC)c(OC)c2)cc1 (stereo not given) | 30.2 |
